Target: T1, SUDV GPdTM (Sudan virus (SUDV), UniProt Q66814 33-637)
T1 sequence: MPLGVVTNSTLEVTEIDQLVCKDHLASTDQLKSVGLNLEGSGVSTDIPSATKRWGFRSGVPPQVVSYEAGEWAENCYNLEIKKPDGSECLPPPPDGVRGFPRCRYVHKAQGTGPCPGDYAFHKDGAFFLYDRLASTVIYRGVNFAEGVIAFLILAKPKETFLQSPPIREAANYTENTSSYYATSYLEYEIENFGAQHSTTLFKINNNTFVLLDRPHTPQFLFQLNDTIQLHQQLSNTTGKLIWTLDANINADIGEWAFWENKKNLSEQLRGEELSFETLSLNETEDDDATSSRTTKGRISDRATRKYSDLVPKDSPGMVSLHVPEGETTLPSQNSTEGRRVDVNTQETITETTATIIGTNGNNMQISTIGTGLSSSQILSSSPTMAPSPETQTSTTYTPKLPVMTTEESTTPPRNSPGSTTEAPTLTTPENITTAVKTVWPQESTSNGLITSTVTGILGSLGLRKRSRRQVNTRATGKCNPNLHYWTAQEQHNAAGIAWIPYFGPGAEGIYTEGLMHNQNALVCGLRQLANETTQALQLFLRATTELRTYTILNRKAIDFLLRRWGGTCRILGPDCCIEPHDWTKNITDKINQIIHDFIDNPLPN
measured.property: EC50 (µg/mL)
Answers are plain numbers, in µg/mL.

Examples from the recorded data:
murine monoclonal antibody 8C4 (antibody, V domains shown, also called m8C4) VH: EVQLQESGPELKKPGETVKISCKASGYTFTTYGMSWVKQAPGKGLKWMGRINTYSGVPTYADEFKGRFAFSLENSASTAYLQINNLKNEDTATYFCARGDGGHWFANWGQGTLVTVSA VL: DIQMTQSPSSLSASLGGKVTITCKASQDINKNIAWYQHKPGKGPRLLIWYKSALQPGIPSRFSGSGSGRDYSFSISNLEPEDIATYSCLQYDNLPPTFGGGTKLEIKR: 0.15
murine monoclonal antibody 4B8 (antibody, V domains shown, also called m4B8) VH: EVQLQESGPGILQPSQTLSLTCSFSGFSLRTLGMGVGWIRQSSGKGLEWLAHIWWSDENYYNPALKSRLTISKDTSKNQVFLRIANVDTAETATYYCARIAYDGYFDYWGQGTSLTVSS VL: KFPSQLLLLLLFGIPGDRVTITCKASEDIYNRLAWYQQKPGNAPRLLISGATSLETGVPSRFSGSGSGKDYTLSITSLQTEDVATYYCQQYWTTPWTFGGGTKLEIKR: 0.088

# evaluate next
Dear colleague, I am looking for the recorded EC50 of the following binder: murine monoclonal antibody 17C6 (antibody, V domains shown) VH: EVQLQESGPGLVQPSQSLSITCTVSGFSLTSYGVHWVRQSPGKGLEWLGVIWSGGSTDYNAAFISRLSISKDNSKSQVFFKMNSLQADDTAIYYCARNWFDYDNYYSMDYWGQGTSVTVSS VL: DIQMTQTTSSLSASLGDRVTISCRASQDISNYLNWYQQKPDGTVKLLIYYTSRLHSGVPSRFSGSGSGTDFSLTISNQEPEDIATYYCQQYSNLPWTFGGGTKLEIKR 2
